Tested on: P388 leukemia ip, CD2F1 mice, survival T/C
Protocol Summary: NCI In Vivo Anticancer Drug Screen. Data for tumor model P388 Leukemia (intraperitoneal) in CD2F1 (CDF1) mice
Experimental Setup: endpoint: median survival time; dose: 100.0 mg/kg/injection; schedule: Q01DX005 (ip); vehicle: Klucel (hydroxypropylcellulose) (HPC)
Inconclusive results and toxic doses are left out. The calls were made as follows: active = survival T/C of 150% or more; inactive = T/C below 125% in these data.
Classes used: TRUE for active, FALSE for inactive

> print(dat)
                                    molecule  answer.label
 1               O=c1[nH]cnc2c1cnn2CN1CCOCC1         FALSE
 2  O=C(N/N=C/c1ccccn1)c1ccccc1[O-].O=C(N/N=C/c1ccccn1)c1ccccc1[O-].[Mn+2]         FALSE
 3   O=[N+]([O-])c1ccccc1N=Nc1c(O)sc2ccccc12         FALSE
 4               NN/C(N)=N/S(=O)(=O)c1ccccc1         FALSE
 5                        O=C(NC1CC1)C(Cl)Cl         FALSE
 6  COc1ccc(-c2cc(=O)c3cccc(CC(=O)O)c3o2)cc1          TRUE
 7  CCP(=S)(CC)[S][Sn]([CH3])([CH3])[S]P(=S)(CC)CC         FALSE
 8               c1ccc(Cn2nnnc2Nc2ccccc2)cc1         FALSE
 9  CCC1CN2CCO[Si](CC[Si](C)(C)C)(OCC2)O1 (centres undefined)         FALSE
10  Cc1nn(C)pc1P(C)(=S)n1nc(N(C)C)np1 (centres undefined)         FALSE
11  CCOC(=O)C1(CC)CC(OCC)OC1=O (centres undefined)         FALSE
12              C[CH2][Ge]([Cl])([Cl])[CH2]C         FALSE
13        COc1cccc(/C=C/c2cc3c(cc2Br)OCO3)c1         FALSE
14  O=C(Nc1ccccc1)/C(N=Nc1ccccc1Cl)=N\Nc1cc(S(=O)(=O)O)ccc1Cl         FALSE
15  COc1cc2c(c3c1c(=O)c1cccc(F)c1n3C)C=CC(C)(C)O2         FALSE
16                O=C(O)CNC(=S)C(=S)NCC(=O)O         FALSE
17  Oc1ccccc1-c1cc(-c2ccccc2)nc(NCCCCNc2nc(-c3ccccc3)cc(-c3ccccc3O)n2)n1         FALSE
18  O=[N+]([O-])c1ccccc1N/N=C\c1c(Cl)[nH]c2ccccc12         FALSE
19  CC1CCC(C(C)C)C(OC(=O)c2cc[n+](C)cc2)C1 (centres undefined)         FALSE
20  COC(=O)C1=C(C(=O)OC)P2(C)(C)SC(=S)N2C1(c1ccccc1)c1ccccc1         FALSE
21                S=c1ncn(C2CCCC2)c(=S)[nH]1         FALSE
22                  COc1ccc(CC#N)c(C(=O)O)c1         FALSE
23              CCOC1=C(CC)C(=O)c2ccccc2C1=O         FALSE
24  Oc1ccc(CCC2CCC(c3ccc(O)cc3)CO2)cc1 (centres undefined)         FALSE

Reference for the values: PubChem BioAssay AID330
